- ASSAY TEXT: Measurement of salt solubility: salts of 1-11 formed in situ and suspended in water, HPLC (UV-Vis)
- Format: physicochemical
- MEASUREMENT CONTEXT: pH in equilibrium with the solid phase of the salt suspended in water; most likely lower than pH of the salt in water
- Description: The solid free base was treated with a concentrated solution of the appropriate acid (1.05-1.1 molar equivalence) and suspended in water for several days. The pH and concentration of the compound in equilibrium with the solid phase was measured by HPLC (UV-Vis detection). This method overestimates the solubility of the salt due to the 5-10% excess of the acid that is added in the preparation of the salts. […]
Structures can show the parent of a compound that is named as a salt.
RECORDED ENDPOINT: pH

{"COMPOUND": "CS(=O)(=O)N1CCN(Cc2ccc3[nH]c(-c4cc5ccccc5[nH]c4=O)cc3c2)CC1 [Besylate salt of 1-11]", "pH": 2.4}
{"COMPOUND": "CS(=O)(=O)N1CCN(Cc2ccc3[nH]c(-c4cc5ccccc5[nH]c4=O)cc3c2)CC1 [Mesylate salt of 1-11]", "pH": 2.3}
{"COMPOUND": "CS(=O)(=O)N1CCN(Cc2ccc3[nH]c(-c4cc5ccccc5[nH]c4=O)cc3c2)CC1 [HCl salt of 1-11]", "pH": 2.3}

[P] CS(=O)(=O)N1CCN(Cc2ccc3[nH]c(-c4cc5ccccc5[nH]c4=O)cc3c2)CC1 [HBr salt of 1-11]
[Q] CS(=O)(=O)N1CCN(Cc2ccc3[nH]c(-c4cc5ccccc5[nH]c4=O)cc3c2)CC1 [Sulfate salt of 1-11]
Hi there, can you help? I need to know whether P or Q has lower measured pH. Answer = label. Q
(Q: 1.5, P: 2.9)

This collection of values is drawn from patent US6960590B2.
